// provenance: the supplement of paper PMC11061612

test system: NCI-H596 (Other Solid Carcinomas); assay: combination Emax (second highest fraction inhibited in the dose matrix, 72 h); higher = more inhibition; extreme values may be limits of the assay
recorded_metric: combination Emax
Output spec: single numeric token, no unit.

1) CS(=O)(=O)CCNCc1ccc(-c2ccc3ncnc(Nc4ccc(OCc5cccc(F)c5)c(Cl)c4)c3c2)o1 [Lapatinib] + NC1(c2ccc(-c3nc4ccn5c(=O)[nH]nc5c4cc3-c3ccccc3)cc2)CCC1 [MK-2206] (first compound max 10 µM, 7x7, partner max 10 µM); 0.822
2) Cc1c2c(nn1C)CSCc1cc(n(C)n1)CSc1cc(c3ccccc3c1)OCCCc1c(C(=O)O)n(C)c3c-2c(Cl)ccc13 [AZD5991] + CN(C)CCCOc1ccc(-c2ccc3ncc4c(c3c2)n(C2CCOCC2)c(=O)n4C)cn1 [AZD0156] (first compound max 1 µM, 7x7, partner max 1 µM); 0.328
3) CN(C)CCCOc1ccc(-c2ccc3ncc4c(c3c2)n(C2CCOCC2)c(=O)n4C)cn1 [AZD0156] + CCN(CCO)CCCOc1ccc2c(Nc3cc(CC(=O)Nc4cccc(F)c4)[nH]n3)ncnc2c1 [AZD2811] (first compound max 1 µM, 7x7, partner max 1 µM); 0.207
4) CC1(C)CCC(CN2CCN(c3ccc(C(=O)NS(=O)(=O)c4ccc(NCC5CCOCC5)c([N+](=O)[O-])c4)c(Oc4cnc5[nH]ccc5c4)c3)CC2)=C(c2ccc(Cl)cc2)C1 [Venetoclax] + CN(C)CCCOc1ccc(-c2ccc3ncc4c(c3c2)n(C2CCOCC2)c(=O)n4C)cn1 [AZD0156] (first compound max 1 µM, 7x7, partner max 1 µM); 0.232
5) C[C@@H](c1ccc2nccn2c1)n1nnc2ncc(-c3cnn(C)c3)nc21 [Savolitinib] + CC1(C)CCC(CN2CCN(c3ccc(C(=O)NS(=O)(=O)c4ccc(NCC5CCOCC5)c([N+](=O)[O-])c4)c(Oc4cnc5[nH]ccc5c4)c3)CC2)=C(c2ccc(Cl)cc2)C1 [Venetoclax] (first compound max 1 µM, 7x7, partner max 1 µM); 0.229
6) CS(=O)(=O)CCNCc1ccc(-c2ccc3ncnc(Nc4ccc(OCc5cccc(F)c5)c(Cl)c4)c3c2)o1 [Lapatinib] + C[C@@H](Oc1cc(-c2cnn(C3CCNCC3)c2)cnc1N)c1c(Cl)ccc(F)c1Cl [Crizotinib] (first compound max 10 µM, 7x7, partner max 10 µM); 0.902

Read the next record carefully.
Find the measured combination Emax: item Cc1c2c(nn1C)CSCc1cc(n(C)n1)CSc1cc(c3ccccc3c1)OCCCc1c(C(=O)O)n(C)c3c-2c(Cl)ccc13 [AZD5991] + C=CCn1c(=O)c2cnc(Nc3ccc(N4CCN(C)CC4)cc3)nc2n1-c1cccc(C(C)(C)O)n1 [AZD1775] (first compound max 1 µM, partner max 1 µM) , target or system NCI-H596 (Other Solid Carcinomas).
0.289

###

test system: KALS-1 (Glioblastoma); experiment: Bliss excess, mean over the matrix (fraction); higher = more synergy;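 further: after 72 h of two-drug dosing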
// label = 1 (yes) if Bliss excess is not less than 0.04, otherwise 0 (no)

Worked examples, 2 compounds total:
1) N#Cc1cnc(Nc2cc(NC[C@H]3CNCCO3)c(C(F)(F)F)cn2)cn1 [SRA737] + CCc1c2c(nc3ccc(O)cc13)-c1cc3c(c(=O)n1C2)COC(=O)[C@]3(O)CC [SN-38] (first compound max 10 µM, 7x7, partner max 0.3 µM); 1 (yes)
2) CC1(C)CCC(CN2CCN(c3ccc(C(=O)NS(=O)(=O)c4ccc(NCC5CCOCC5)c([N+](=O)[O-])c4)c(Oc4cnc5[nH]ccc5c4)c3)CC2)=C(c2ccc(Cl)cc2)C1 [Venetoclax] + Cn1cnc2c(F)c(Nc3ccc(Br)cc3Cl)c(C(=O)NOCCO)cc21 [Selumetinib] (first compound max 1 µM, 7x7, partner max 3 µM); 0 (no)

Can CCc1c2c(nc3ccc(O)cc13)-c1cc3c(c(=O)n1C2)COC(=O)[C@]3(O)CC [SN-38] + O=C(c1cc(Cc2n[nH]c(=O)c3ccccc23)ccc1F)N1CCN(C(=O)C2CC2)CC1 [Olaparib] (first compound max 0.3 µM, 7x7, partner max 10 µM) be said to have Bliss excess at or above 0.04?
1 (yes)

Can COc1cccc2c1C(=O)c1c(O)c3c(c(O)c1C2=O)C[C@@](O)(C(=O)CO)C[C@@H]3O[C@H]1C[C@H](N)[C@H](O)[C@H](C)O1 [Doxorubicin] + Cc1cc2ncnn2cc1Nc1ncc2c(n1)n(C1CCOCC1)c(=O)n2C [AZD7648] (first compound max 1 µM, 7x7, partner max 10 µM) be said to have Bliss excess at or above 0.04?
1 (yes)

Can COc1cccc(OCCCN)c1-c1cc(Nc2cnc(C#N)cn2)n[nH]1 [Prexasertib] + O=C(c1cc(Cc2n[nH]c(=O)c3ccccc23)ccc1F)N1CCN(C(=O)C2CC2)CC1 [Olaparib] (first compound max 1 µM, 7x7, partner max 10 µM) be said to have Bliss excess at or above 0.04?
0 (no)

Can CN(CCO)CC[C@H](CSc1ccccc1)Nc1ccc(S(=O)(=O)NC(=O)c2ccc(N3CCC([C@@H](O)c4ccccc4-c4ccc(Cl)cc4)CC3)cc2)cc1S(=O)(=O)C(F)(F)F [AZD4320] + C1CN(CCC1(C(=O)N[C@@H](CCO)C2=CC=C(C=C2)Cl)N)C3=NC=NC4=C3C=CN4 [Capivasertib] (first compound max 1 µM, 7x7, partner max 3 µM) be said to have Bliss excess at or above 0.04?
0 (no)
